Values from paper PMC8839189

Test: ABTS radical cation scavenging activity assay
Conditions: 1 h incubation, ABTS•+ 100 μM
# IC50 per entry
Could you give me the number in µM? Just the number is fine.

Completed entries (count: 2):
Chemical smiles	Measured value
S=C(NCCCCCNC(=S)Nc1c2c(nc3c1CCC3)CCCC2)Nc1c2c(nc3c1CCC3)CCCC2	10.9
S=C(NCCCCNC(=S)Nc1c2c(nc3c1CCC3)CCCC2)Nc1c2c(nc3c1CCC3)CCCC2	9.7

INPUT: Give recorded IC50. S=C(NCCCNC(=S)Nc1c2c(nc3c1CCC3)CCCC2)Nc1c2c(nc3c1CCC3)CCCC2
OUTPUT: 9.9
